experiment: chemical genetic growth profiling, strain panel (AID 1159580);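 note: tested at 20 µM; growth read once vehicle control cultures reached saturation at 30 °C; 1 = growth at the plate median or of vehicle wells; lower values mean less growth of the strain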
assay-context: S. cerevisiae deletion strains, growth OD, locus YBR229C, strain ROT2
Hit rate of the full screen: of about 5,500 compounds, about 2,000 (36%) were called active. Not shown: some 18% with an inconclusive outcome. Cut-off read from the data, not from the text of the source: active = normalized growth mostly below about 0.91 (no sharp cut-off); inconclusive = no clear call, values can overlap the other calls; inactive = mostly above about 0.92. The list shows a part of the results.
Outcomes: True = active, False = inactive

[[record]]
molecule = "CC(NC(=S)Nc1ccc(Oc2ccc(Cl)cc2)cc1)c1ccccc1 (configuration not stated)"
category_label = "False"

[[record]]
molecule = "COc1cc(O)c(C(=O)O)c(O)c1"
category_label = "False"

[[record]]
molecule = "COc1ccc(/C(C)=N\\NC2=NCCCN2)cc1"
category_label = "False"

[[record]]
molecule = "O=C(c1ccc(Cl)cc1)N1CCN(c2ccc(C(F)(F)F)cn2)CC1"
category_label = "True"

[[record]]
molecule = "OCCN1CCN(CCCN2c3ccccc3Sc3ccc(Cl)cc32)CC1"
category_label = "False"

[[record]]
molecule = "CCN(C(=S)Nc1ccc(OC)cc1)c1ccccc1"
category_label = "False"

[[record]]
molecule = "CC1(C)C=Cc2c(cc3occ(-c4ccc5c(c4)OCO5)c(=O)c3c2O)O1"
category_label = "False"

[[record]]
molecule = "CN1Cc2c(N)cccc2C(c2ccccc2)C1 (configuration not stated)"
category_label = "False"

[[record]]
molecule = "C[C@]12C=CC(=O)C=C1CCC1C2C(=O)C[C@@]2(C)C1CC[C@]2(O)C(=O)CO (some centres not stated)"
category_label = "False"

[[record]]
molecule = "CC(=O)N[C@@H](CC(=O)O)C(=O)O"
category_label = "False"

[[record]]
molecule = "CSCCC(NC=O)C(=O)NC(CC(C)C)C(=O)NC(Cc1ccccc1)C(=O)O (configuration not stated)"
category_label = "False"

[[record]]
molecule = "c1ccc2c(c1)-c1cccc3cccc-2c13"
category_label = "True"


* * *

# normalized growth listing for each entry below
experiment: chemical genetic growth profiling, strain panel (AID 1159580);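 note: tested at 20 µM; growth read once vehicle control cultures reached saturation at 30 °C; 1 = growth at the plate median or of vehicle wells; lower values mean less growth of the strain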
assay-context: S. cerevisiae deletion strains, growth OD, locus YDR318W, strain mcm21, hits give low values
Out of some 5,500 compounds screened, about 2,000 (36%) were called active. Inconclusive results (about 18%) are left out. Some of the results follow.
endpoint: normalized growth

[[record]]
compound = "COc1ccc2ccc(=O)oc2c1CC=C(C)C"
endpoint = "normalized growth"
test_result = 0.741

[[record]]
compound = "COc1cc2ccc(=O)oc2cc1O"
endpoint = "normalized growth"
test_result = 0.992

[[record]]
compound = "O=C(O)c1cc2cc(Cl)ccc2[nH]1"
endpoint = "normalized growth"
test_result = 0.984

[[record]]
compound = "COc1cc(OC)c(-c2c(OC)cc(OC)cc2OC)c(OC)c1"
endpoint = "normalized growth"
test_result = 1.03

[[record]]
compound = "COc1cc(OC)cc(OC)c1"
endpoint = "normalized growth"
test_result = 0.0697

[[record]]
compound = "CC(=O)OC1CCC2C3CCc4cc(O)ccc4C3CCC12C (configuration not stated)"
endpoint = "normalized growth"
test_result = 1

[[record]]
compound = "O=c1ccc2cc(O[C@@H]3O[C@H](CO)[C@@H](O)[C@H](O)[C@H]3O)c(O)cc2o1"
endpoint = "normalized growth"
test_result = 0.999


* * *

Measured normalized growth, listed per entry.
experiment: chemical genetic growth profiling, strain panel (AID 1159580);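 note: tested at 20 µM; growth read once vehicle control cultures reached saturation at 30 °C; 1 = growth at the plate median or of vehicle wells; lower values mean less growth of the strain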
assay-context: S. cerevisiae deletion strains, growth OD, locus YMR231W, strain pep5, hits give low values
The campaign covered roughly 5,500 compounds. About 2,000 (36%) were called active. About 18% were inconclusive and are not listed. This is one part of the list.
endpoint: normalized growth

[[record]]
smiles_input = "c1coc(CNc2ncnc3nc[nH]c23)c1"
endpoint = "normalized growth"
test_result = "0.991 (inactive)"

[[record]]
smiles_input = "CCCCCN=C(N)N/N=C\\c1c[nH]c2ccc(OC)cc12"
endpoint = "normalized growth"
test_result = "1.02 (inactive)"

[[record]]
smiles_input = "CC1(C)S[C@@H]2[C@H](NC(=O)COc3ccccc3)C(=O)N2[C@H]1C(=O)O"
endpoint = "normalized growth"
test_result = "1.01 (inactive)"

[[record]]
smiles_input = "C=C(C)c1cc2cc(C(C)=O)c(O)cc2o1"
endpoint = "normalized growth"
test_result = "0.997 (inactive)"

[[record]]
smiles_input = "Cc1nccc2c1[nH]c1ccccc12"
endpoint = "normalized growth"
test_result = "0.977 (inactive)"

[[record]]
smiles_input = "c1ccc2c(c1)[nH]c1cnccc12"
endpoint = "normalized growth"
test_result = "0.994 (inactive)"

[[record]]
smiles_input = "O=C(/C=C/C(=O)Oc1ccccc1C(=O)O)Oc1ccccc1C(=O)O"
endpoint = "normalized growth"
test_result = "0.979 (inactive)"

[[record]]
smiles_input = "O=c1[nH]cnc2nc[nH]c12"
endpoint = "normalized growth"
test_result = "0.987 (inactive)"


* * *

experiment: chemical genetic growth profiling, strain panel (AID 1159580);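 note: tested at 20 µM; growth read once vehicle control cultures reached saturation at 30 °C; 1 = growth at the plate median or of vehicle wells; lower values mean less growth of the strain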
assay-context: S. cerevisiae deletion strains, growth OD, locus YNR030W, strain Alg12, hits give low values
In all, about 5,500 compounds went through this assay and about 2,000 (36%) were called active. Another 18% or so got no clear call; they are omitted. The list shows a part of the results.
endpoint: normalized growth

[[record]]
compound = "CC(C)(C)c1cc(C(C)(C)C)n(-c2ccc([N+](=O)[O-])cc2)n1"
test_result = 1.04

[[record]]
compound = "O=C(Oc1ccc(F)cc1)c1cccs1"
test_result = 1.02

[[record]]
compound = "COc1cccc(NC(=S)NCc2ccco2)c1"
test_result = 0.986

[[record]]
compound = "S=c1[nH]nc(-c2ccco2)n1-c1ccc2c(c1)OCCO2"
test_result = 1.01

[[record]]
compound = "COc1ccc(/C=N\\NC(=O)CC#N)cc1OC"
test_result = 0.998

[[record]]
compound = "CC(=O)c1csc([N+](=O)[O-])c1"
test_result = 1.02

[[record]]
compound = "O=[N+]([O-])c1ccc(C2N(Cc3ccccc3)CCC3CCCCN32)cc1 (stereo not drawn)"
test_result = 1.02

[[record]]
compound = "O=C1CCC(=O)N1CNc1ccccc1OC(F)(F)F"
test_result = 1

[[record]]
compound = "c1ccc2c(c1)-c1cccc3cccc-2c13"
test_result = 0.721

[[record]]
compound = "Cc1ccc(S(=O)(=O)/C(C#N)=N\\O)cc1"
test_result = 0.998

[[record]]
compound = "O=C(O)C12CC3CC(CC(Br)(C3)C1)C2"
test_result = 0.997

[[record]]
compound = "Cc1cc(N=CNO)c2ccccc2n1"
test_result = 0.982

[[record]]
compound = "CC(O)CNc1ccc(C(F)(F)F)cc1[N+](=O)[O-] (stereo not drawn)"
test_result = 0.999

[[record]]
compound = "CCCCCc1ccc(S(=O)(=O)Nc2cccnc2Oc2ccc(Cl)cc2)cc1"
test_result = 0.984

[[record]]
compound = "O=c1nc(-c2ccccc2)nc(-c2ccccc2)[nH]1"
test_result = 0.989

[[record]]
compound = "COc1ccccc1N=C1SCC(=O)N1Cc1ccco1"
test_result = 0.998

[[record]]
compound = "O=C(NCCNc1ccc(C(F)(F)F)cc1[N+](=O)[O-])c1cccs1"
test_result = 0.911

[[record]]
compound = "Cc1ccc(C(=O)NNC(=O)c2ccncc2)c(C)c1"
test_result = 1.01

[[record]]
compound = "FC(F)(F)c1cc(NC2=NCCN=C(Nc3cc(C(F)(F)F)cc(C(F)(F)F)c3)SS2)cc(C(F)(F)F)c1"
test_result = 0.988

[[record]]
compound = "NC(=S)c1ccc2nonc2c1"
test_result = 0.988

[[record]]
compound = "Cc1onc(-c2c(F)cccc2Cl)c1C(=O)N1CCN(c2ncccc2C(F)(F)F)CC1"
test_result = 0.99

[[record]]
compound = "CSc1sc(-c2ccn[nH]2)c(-c2ccccc2)c1C#N"
test_result = 0.753

[[record]]
compound = "COC(=O)c1c(OC)ccc(N=CNO)c1OC"
test_result = 0.996

[[record]]
compound = "CCOC(=O)CC1=Nn2c(nnc2-c2cc(Cl)cc(Cl)c2)SC1"
test_result = 0.914

[[record]]
compound = "N#CC(C#N)=CNc1cc(C(F)(F)F)ccc1N1CCCCC1"
test_result = 1.01

[[record]]
compound = "COc1ccc(/C=C(\\C#N)c2nc3ccccc3[nH]2)cc1OC"
test_result = 0.906

[[record]]
compound = "N#C/C(=C\\Nc1ccc2c(c1)OCCO2)S(=O)(=O)c1ccc(C(F)(F)F)cn1"
test_result = 0.978

[[record]]
compound = "Cc1c(-n2cccc2)cc2c(c1[N+](=O)[O-])C(C)(C)CC2(C)C"
test_result = 1.01

[[record]]
compound = "O=S(=O)(O)c1cccc2cccc(Cl)c12"
test_result = 1.03

[[record]]
compound = "CC(=O)NN(C)c1ccc(C(F)(F)F)cc1[N+](=O)[O-]"
test_result = 1.02

[[record]]
compound = "CCCc1ccc(OC)cc1NC(C)=O"
test_result = 1.02

[[record]]
compound = "CCOC(=N)c1ccc(F)c(Cl)c1"
test_result = 1.01

[[record]]
compound = "Cc1ccc(S(=O)(=O)Oc2cc(=O)n(C)c3ccccc23)cc1"
test_result = 0.909

[[record]]
compound = "O=C(NC(=S)Nc1ccc(Cl)cc1)c1ccc([N+](=O)[O-])o1"
test_result = 0.956

[[record]]
compound = "CC(C)(C)c1ccc(C(=O)N/N=C\\c2cc(Cl)cc(Cl)c2O)cc1"
test_result = 0.617

[[record]]
compound = "COc1ccc(/C(C)=N\\NC2=NCCCN2)cc1"
test_result = 0.993

[[record]]
compound = "NC(=S)Nc1cc(Cl)ccc1Cl"
test_result = 0.988

[[record]]
compound = "NNC(=S)Nc1cc(C(F)(F)F)ccc1Cl"
test_result = 0.525

[[record]]
compound = "Cc1cc(C)c(C(=O)NCCNc2ccc(C(F)(F)F)cc2[N+](=O)[O-])c(C)c1"
test_result = 0.652

[[record]]
compound = "CC(C)(C)c1cc(C(C)(C)C)n(-c2ccc(N=Cc3cc(Br)cc(Br)c3O)cc2)n1"
test_result = 0.468

[[record]]
compound = "Cc1ccc(/C(C#N)=C2C=C/C(=N/O)C(Cl)=C\\2Cl)cc1"
test_result = 0.877

[[record]]
compound = "COc1cc(Cl)c(Cl)cc1Cl"
test_result = 0.98

[[record]]
compound = "COC(=O)c1ccccc1-n1cccc1C(=O)OC"
test_result = 0.973


The measurements presented in this section are drawn from PubChem BioAssay AID1159580.
